- Tested on: NCI-H460 NSCLC
- Test Details: NCI tumour cell line growth inhibition, 384-well format
Measure: TGI

                            chemical_smiles  measure  meas_value
0  NC(=O)c1ccc(-c2nc(-c3ccc4c(c3)OCO4)c(-c3ccccn3)[nH]2)cc1      TGI     28.1 µM
1  Cc1[nH]c2ccc(F)cc2c1-c1nc2c3cccnc3c3ncccc3c2[nH]1      TGI     4.26 µM
2  CC[C@H](CO)Nc1nc(NCc2ccccc2)c2ncn(C(C)C)c2n1      TGI     31.8 µM
3  NC(=O)Nc1cc(-c2cccc(F)c2)sc1C(=O)N[C@H]1CCCNC1      TGI     2.06 µM

###

- System: SF-295 CNS
- Test Details: NCI tumour cell line growth inhibition, 384-well format
TGI overview
Measure: TGI

In [3]: df
Out[3]:
                            chemical_smiles  meas_value
0  O=c1c(O)c(-c2ccc(O)c(O)c2)oc2cc(O)cc(O)c12     33.2 µM
1  Cc1[nH]c2ccc(F)cc2c1-c1nc2c3cccnc3c3ncccc3c2[nH]1       12 µM
2  Cc1cnc(CNC(=O)c2c(=O)c3ccc(N4CCCN(C)CC4)nc3n3c2sc2ccccc23)cn1    > 100 µM
3  Cc1nn(C)c(COc2ccc(N3CCN(S(=O)(=O)N(C)C)CC3)cc2)c1-c1cccc2c(CCCOc3cccc4ccccc34)c(C(=O)O)n(CCN3CCOCC3)c12     7.54 µM

###

- System: A498 renal
- Test Details: NCI tumour cell line growth inhibition, 384-well format; in the data active = GI50 below about 0.43 µM; inactive = the rest
Labels: true (1) (active), false (0) (inactive)

In [3]: df
Out[3]:
                            chemical_smiles  group_label
0  Cc1cnc(CNC(=O)c2c(=O)c3ccc(N4CCCN(C)CC4)nc3n3c2sc2ccccc23)cn1     true (1)
1  CC[C@H](CO)Nc1nc(NCc2ccccc2)c2ncn(C(C)C)c2n1    false (0)
2  Cc1[nH]c2ccc(F)cc2c1-c1nc2c3cccnc3c3ncccc3c2[nH]1     true (1)
3  O=c1c(O)c(-c2ccc(O)c(O)c2)oc2cc(O)cc(O)c12    false (0)
4  NC(=O)Nc1cc(-c2cccc(F)c2)sc1C(=O)N[C@H]1CCCNC1     true (1)

###

- Tested on: TK-10 renal
- Test Details: NCI tumour cell line growth inhibition, 384-well format
Measure: TGI (µM)

                            chemical_smiles  value_comparator  meas_value
0  NC(=O)c1ccc(-c2nc(-c3ccc4c(c3)OCO4)c(-c3ccccn3)[nH]2)cc1                 =        60.4
1  Cc1cnc(CNC(=O)c2c(=O)c3ccc(N4CCCN(C)CC4)nc3n3c2sc2ccccc23)cn1                 >         100
2  COc1ccc(Cl)c(Nc2nc3ccccc3nc2NS(=O)(=O)c2cccc(NC(=O)C(C)(C)N)c2)c1                 =        19.5
3  Cc1[nH]c2ccc(F)cc2c1-c1nc2c3cccnc3c3ncccc3c2[nH]1                 =        18.8
